Biological target: Transitional endoplasmic reticulum ATPase (Homo sapiens, UniProt P55072)
Sequence (P55072 whole entry): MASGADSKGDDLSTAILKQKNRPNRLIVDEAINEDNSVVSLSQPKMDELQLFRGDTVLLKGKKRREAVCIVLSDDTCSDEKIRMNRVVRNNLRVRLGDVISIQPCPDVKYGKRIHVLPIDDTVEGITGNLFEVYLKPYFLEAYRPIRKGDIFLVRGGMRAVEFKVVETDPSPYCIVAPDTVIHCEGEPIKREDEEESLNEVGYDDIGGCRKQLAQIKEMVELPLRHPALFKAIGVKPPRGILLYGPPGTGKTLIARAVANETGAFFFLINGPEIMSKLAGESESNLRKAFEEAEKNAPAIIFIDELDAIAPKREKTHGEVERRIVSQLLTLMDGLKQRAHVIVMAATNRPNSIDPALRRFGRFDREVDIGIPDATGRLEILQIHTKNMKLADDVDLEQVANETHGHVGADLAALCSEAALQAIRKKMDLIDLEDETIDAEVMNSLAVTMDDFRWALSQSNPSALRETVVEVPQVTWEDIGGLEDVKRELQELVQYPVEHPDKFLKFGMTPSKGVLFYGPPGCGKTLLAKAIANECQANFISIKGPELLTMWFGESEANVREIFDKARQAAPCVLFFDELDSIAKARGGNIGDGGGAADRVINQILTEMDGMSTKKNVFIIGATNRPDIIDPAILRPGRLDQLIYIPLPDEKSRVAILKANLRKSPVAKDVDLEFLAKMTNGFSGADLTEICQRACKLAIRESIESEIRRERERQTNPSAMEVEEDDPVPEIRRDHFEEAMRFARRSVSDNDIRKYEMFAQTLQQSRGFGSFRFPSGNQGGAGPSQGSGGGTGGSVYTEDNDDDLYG
Experiment: Inhibition of His6-tagged p97 (unknown origin) expressed in Escherichia coli BL21 (DE3) assessed as reduction in ATPase activity measured after 60 mins by biomol green reagent based assay
measuredQuantity: IC50 (nM)
One number for each entry, in nM.

- C=CC(=O)N(C(=O)C=C)c1ncnc2c1c(-c1ccccc1)nn2C(C)(C)C: 1100

Below: the item to evaluate.
**Query** Item C=CC(=O)N(C(=O)C=C)c1ncnc2c1c(-c1ccc(-c3ccccc3)cc1)nn2C(C)(C)C : provide IC50
**Result** 900

* * *

System: HCT-116
Assay: Antiproliferative activity against human HCT-116 cells after 48 hrs by celltiter-glo luminescence assay
Format: functional, cell-based
Settings: HCT-116, 48 h
measuredQuantity: IC50 (nM)
Answers are plain numbers, in nM.

**Query** Please indicate IC50 recorded for C=CC(=O)Nc1ncnc2c1c(-c1ccccc1)nn2C(C)(C)C
**Result** 2700

* * *

Biological target: Transitional endoplasmic reticulum ATPase (Homo sapiens)
Assay: Inhibition of His6-tagged p97 (unknown origin) expressed in Escherichia coli BL21 (DE3) assessed as reduction in ATPase activity measured after 60 mins by biomol green reagent based assay
measuredQuantity: pIC50
Give bare numbers, as −log10 of the molar value.

Field: example entries. Status: answers known.
* C=CC(=O)N(C(=O)C=C)c1ncnc2c1c(-c1ccc3ccccc3c1)nn2C(C)(C)C | 5.89
* Cc1ccc(-c2c(C(=O)CCl)n(CCCO)c3ncnc(N)c23)cc1 | 5.41
* CCC(=O)Oc1ccc(/C=C/[N+](=O)[O-])cc1OC | 5.47
* COc1cc(/C=C/[N+](=O)[O-])ccc1O | 4.89

**Query** Look up Transitional endoplasmic reticulum ATPase (Homo sapiens) data: pIC50 of C=CC(=O)Nc1ncnc2c1c(-c1ccccc1)nn2C(C)(C)C , then report it.
**Result** 6.22

* * *

Experiment: Inhibition of yeast Cdc48 T532C mutant assessed as reduction in ATPase activity measured after 60 mins by biomol green reagent based assay
Parameters: species or system Saccharomyces cerevisiae
measuredQuantity: IC50 (µM)
Give bare numbers, in µM.

- C=CC(=O)Nc1ncnc2c1c(-c1ccc3ccccc3c1)nn2C(C)(C)C: 24
- CC(C)(C)n1nc(-c2ccccc2)c2c(NC(=O)CCl)ncnc21: 35
- C=CC(=O)N(C(=O)C=C)c1ncnc2c1c(-c1ccc3ccccc3c1)nn2C(C)(C)C: 22
- C=CC(=O)Nc1ncnc2c1c(-c1ccccc1)nn2C(C)(C)C: 14

Okay, next one:
**Query** Answer with the recorded IC50 of C=CC(=O)N(C(=O)C=C)c1ncnc2c1c(-c1ccccc1)nn2C(C)(C)C only.
**Result** 26

* * *

Target: Transitional endoplasmic reticulum ATPase (Homo sapiens)
Assay: Inhibition of p97 in human HeLa cells assessed as reduction in proteasomal turnover of p97-dependent reporter substrate UbG76V-GFP incubated for 120 mins by GFP fluorescence imaging
What pIC50 was measured for each of the following?
Answers are plain numbers, as −log10 of the molar value.

Consider the reported pIC50 for these compounds:
* C=CC(=O)N(C(=O)C=C)c1ncnc2c1c(-c1ccccc1)nn2C(C)(C)C | 5.27
* COc1cc(/C=C/[N+](=O)[O-])ccc1OC(C)=O | 5.24
* COc1cc(/C=C/[N+](=O)[O-])ccc1OC(=O)c1ccccc1 | 5.24
* Cc1ccc(-c2c(C(=O)CCl)n(CCCO)c3ncnc(N)c23)cc1 | 5.24
* C=CC(=O)N(C(=O)C=C)c1ncnc2c1c(-c1ccc(-c3ccccc3)cc1)nn2C(C)(C)C | 5.21
* Cc1ccc(C(=O)C#Cc2ccccc2)cc1 | 5.47
* O=[N+]([O-])/C=C/c1c(F)c(F)c(F)c(F)c1F | 5.57
* O=[N+]([O-])/C=C/c1ccc(F)c(Br)c1 | 5.74
* C=CC(=O)Nc1ncnc2c1c(-c1ccc(-c3ccccc3)cc1)nn2C(C)(C)C | 5.68
* O=[N+]([O-])/C=C/c1cccc([N+](=O)[O-])c1 | 5.77

// for each compound in input: emit pIC50
1. O=[N+]([O-])/C=C/c1cccnc1
2. CCC(=O)Oc1ccc(/C=C/[N+](=O)[O-])cc1OC
3. Cc1ccc(-c2c(C(=O)CF)n(CCCO)c3ncnc(N)c23)cc1
4. C=CC(=O)Nc1ccc2ncnc(Nc3ccc(-c4ccccc4)cc3)c2c1
5. COc1ccc(/C=C/[N+](=O)[O-])cc1OC
6. C=CC(=O)Nc1ncnc2c1c(-c1ccc3ccccc3c1)nn2C(C)(C)C
7. CC(C)(C)n1nc(-c2ccccc2)c2c(NC(=O)CCl)ncnc21
8. C=CC(=O)Nc1ncnc2c1c(-c1ccccc1)nn2C(C)(C)C

**Result**
1: 5.54; 2: 5.37; 3: 4.33; 4: 4.74; 5: 5.72; 6: 5.70; 7: 4.51; 8: 5.80

**Query** Quote Transitional endoplasmic reticulum ATPase (Homo sapiens) pIC50 for entry COc1cc(/C=C/[N+](=O)[O-])ccc1O .
**Result** 5.17
